Test system: GM1 production in Jurkat cells
Assay: cells
Type: cell-based
Settings: Homo sapiens, Jurkat, 72 h
pIC50: −log10 of the molar value.
property name: pIC50

compound	observed
COc1ccc(-c2ccc3c(c2)CC(C)(C)C3NC(=O)O[C@@H]2CN3CCC2CC3)c(Cl)c1 (stereo partly drawn) [Example 123]	8.03
COc1ccc(C#N)cc1-c1ccc2c(c1)CC(C)(C)C2NC(=O)O[C@@H]1CN2CCC1CC2 (stereo partly drawn) [Example 244]	7.42
O=C(NC1CCc2cc(-c3ccc(F)cc3F)ccc21)O[C@@H]1CN2CCC1CC2 (stereo partly drawn) [Example 16]	7.25

---

Test system: GM1 production in Jurkat cells
Test: cells
Assay type: cell-based
Conditions: Homo sapiens, Jurkat, 72 h
Recorded IC50 values for a group of molecules are listed next.
property name: IC50 (nM)

molecule	test system	property name	readout units	observed
COc1ccc(C(F)(F)F)cc1-c1ccc2c(c1)CC(C)(C)C2NC(=O)O[C@@H]1CN2CCC1CC2 (stereo partly drawn) [Example 251]	GM1 production in Jurkat cells	IC50	nM	7.2
CC1(C)Cc2ccc(-c3ccc(OC(F)F)cc3)cc2C1NC(=O)O[C@@H]1CN2CCC1CC2 (stereo partly drawn) [Example 61]	GM1 production in Jurkat cells	IC50	nM	39.6
COc1c(C)cc(-c2ccc3c(c2)CC(C)(C)C3NC(=O)O[C@@H]2CN3CCC2CC3)cc1C (stereo partly drawn) [Example 195]	GM1 production in Jurkat cells	IC50	nM	36.1
CC(C)COc1ccc(-c2ccc3c(c2)CC(C)(C)C3NC(=O)O[C@@H]2CN3CCC2CC3)cc1 (stereo partly drawn) [Example 136]	GM1 production in Jurkat cells	IC50	nM	1.7
COCOc1ccc(-c2ccc3c(c2)CC2(CC2)C3NC(=O)O[C@@H]2CN3CCC2CC3)cc1 (stereo partly drawn) [Example 397]	GM1 production in Jurkat cells	IC50	nM	17.4
CC1(C)CC(NC(=O)O[C@@H]2CN3CCC2CC3)c2ccc(-c3cccc(C(F)(F)F)c3)cc21 (stereo partly drawn) [Example 401]	GM1 production in Jurkat cells	IC50	nM	15.1
CCc1cccc(-c2cc3c(cc2F)C(NC(=O)O[C@@H]2CN4CCC2CC4)C(C)(C)C3)c1 (stereo partly drawn) [Example 371]	GM1 production in Jurkat cells	IC50	nM	24.8
CCOc1ccc(-c2cc3c(cc2F)C(NC(=O)O[C@@H]2CN4CCC2CC4)C(C)(C)C3)cc1 (stereo partly drawn) [Example 356]	GM1 production in Jurkat cells	IC50	nM	21.6
CCc1ccc(/C=C/c2ccc3c(c2)CC(C)(C)C3NC(=O)O[C@@H]2CN3CCC2CC3)cc1 (stereo partly drawn) [Example 274]	GM1 production in Jurkat cells	IC50	nM	10.3
CCOc1ccc(F)cc1-c1ccc2c(c1)CC(C)(C)C2NC(=O)O[C@@H]1CN2CCC1CC2 (stereo partly drawn) [Example 256]	GM1 production in Jurkat cells	IC50	nM	24.6
COc1ccc(OC)c(-c2cc3c(cc2OC)C(NC(=O)O[C@@H]2CN4CCC2CC4)C(C)(C)C3)c1 (stereo partly drawn) [Example 344]	GM1 production in Jurkat cells	IC50	nM	51
CC1(C)Cc2ccc(-c3ccc(OC(F)(F)F)cc3)cc2C1NC(=O)O[C@@H]1CN2CCC1CC2 (stereo partly drawn) [Example 52]	GM1 production in Jurkat cells	IC50	nM	82.3
CC1(C)Cc2cc(-c3ccc(C(F)(F)F)cc3C(F)(F)F)ccc2C1NC(=O)O[C@@H]1CN2CCC1CC2 (stereo partly drawn) [Example 252]	GM1 production in Jurkat cells	IC50	nM	43.9
CC1(C)Cc2cc(-c3ccc(C(F)(F)F)cc3F)ccc2C1NC(=O)O[C@@H]1CN2CCC1CC2 (stereo partly drawn) [Example 229]	GM1 production in Jurkat cells	IC50	nM	56.2
COc1ccc(-c2ccc3c(c2)CC(C)(C)C3NC(=O)O[C@@H]2CN3CCC2CC3)c(C)c1 (stereo partly drawn) [Example 180]	GM1 production in Jurkat cells	IC50	nM	28.1
CCCCOc1cccc(-c2ccc3c(c2)CC(C)(C)C3NC(=O)O[C@@H]2CN3CCC2CC3)c1 (stereo partly drawn) [Example 218]	GM1 production in Jurkat cells	IC50	nM	6.7
CC1(C)Cc2cc(-c3cccc4cnccc34)ccc2C1NC(=O)O[C@@H]1CN2CCC1CC2 (stereo partly drawn) [Example 141]	GM1 production in Jurkat cells	IC50	nM	39.9
Cc1ccc(-c2ccc3c(c2)CC(C)(C)C3NC(=O)O[C@@H]2CN3CCC2CC3)cc1 (stereo partly drawn) [Example 85]	GM1 production in Jurkat cells	IC50	nM	11.6
CC1(C)Oc2cc(-c3cccc(F)c3)ccc2C1NC(=O)O[C@@H]1CN2CCC1CC2 (stereo partly drawn) [Example 407]	GM1 production in Jurkat cells	IC50	nM	44.4
CC1(C)Cc2cc(-c3ccccc3Cl)ccc2C1NC(=O)O[C@@H]1CN2CCC1CC2 (stereo partly drawn) [Example 82]	GM1 production in Jurkat cells	IC50	nM	3.2
CCCOc1cccc(-c2ccc3c(c2)CC(C)(C)C3NC(=O)O[C@@H]2CN3CCC2CC3)c1 (stereo partly drawn) [Example 199]	GM1 production in Jurkat cells	IC50	nM	5.5
Cc1ccc(-c2ccc3c(c2)C(NC(=O)O[C@@H]2CN4CCC2CC4)CC3)cc1 (stereo partly drawn) [Example 38]	GM1 production in Jurkat cells	IC50	nM	62
CC(C)Oc1ccc(-c2cc3c(cc2F)C(NC(=O)O[C@@H]2CN4CCC2CC4)C(C)(C)C3)cc1 (stereo partly drawn) [Example 358]	GM1 production in Jurkat cells	IC50	nM	7.7
O=C(NC1CCc2ccc(-c3cccc(C(F)(F)F)c3)cc21)O[C@@H]1CN2CCC1CC2 (stereo partly drawn) [Example 31]	GM1 production in Jurkat cells	IC50	nM	65.5
CCCCc1ccc(-c2ccc3c(c2)CC(CC)(CC)C3NC(=O)O[C@@H]2CN3CCC2CC3)cc1 (stereo partly drawn) [Example 280]	GM1 production in Jurkat cells	IC50	nM	1.6
CC(C)Oc1ccc(F)c(-c2ccc3c(c2)CC(C)(C)C3NC(=O)O[C@@H]2CN3CCC2CC3)c1 (stereo partly drawn) [Example 172]	GM1 production in Jurkat cells	IC50	nM	48.5
O=C(NC1CCc2ccc(-c3ccc(C(F)(F)F)cc3)cc21)O[C@@H]1CN2CCC1CC2 (stereo partly drawn) [Example 27]	GM1 production in Jurkat cells	IC50	nM	35.7
CC(C)Oc1ccc(F)cc1-c1ccc2c(c1)CC(C)(C)C2NC(=O)O[C@@H]1CN2CCC1CC2 (stereo partly drawn) [Example 208]	GM1 production in Jurkat cells	IC50	nM	67.4
CC1(C)Cc2cc(-c3cc(C(F)(F)F)ccc3Cl)ccc2C1NC(=O)O[C@@H]1CN2CCC1CC2 (stereo partly drawn) [Example 221]	GM1 production in Jurkat cells	IC50	nM	16.9
CC1(C)Cc2cc(-c3ccc(N4CCOCC4)c(Cl)c3)ccc2C1NC(=O)O[C@@H]1CN2CCC1CC2 (stereo partly drawn) [Example 153]	GM1 production in Jurkat cells	IC50	nM	41.4
